// growth inhibition lookup, one value per entry
assay: NCI Yeast Anticancer Drug Screen. Data for the mec2-1 strain (AID 157); conditions: S. cerevisiae mec2-1 strain, at 50.0 µM (retest, dose inferred, filed as 5.0), hits give high values
The panel holds about 79,000 compounds, 15% with a hit somewhere; the sample as a whole holds those more often.
Report the value in % with no unit label.

# lookup: growth inhibition of Clc1ccc(C2=C(c3ccccc3)C(c3ccc(Cl)cc3)N3C(=N[C@H]4CCCC[C@@H]43)N2)cc1 (stereo partly specified)
7

Quick one: growth inhibition of O=c1[nH]c2ccccc2c(O)c1/C=N/C(=S)NCCc1ccccc1 ?
22

I would be grateful if you could share the reported growth inhibition for CC(=O)Oc1ccc2c(c1)CCC1C2CCC2(C)C1CCC21CO1 (stereo unspecified) .
18

Any idea what growth inhibition was measured for O=S(=O)(Nc1ccc(Cl)cc1)c1ccccc1 ?
32

For CC(C(=O)c1ccc2cc(Br)c3ccccc3c2c1)N(C)C (stereo unspecified) , what is its reported growth inhibition?
99

Continuing:
Can you share its growth inhibition? I mean this molecule: COc1ccccc1/C=C(\NC(=O)c1ccccc1)c1nc2ccccc2[nH]1
98

* * *

assay: NCI Yeast Anticancer Drug Screen. Data for the mec2-1 strain (AID 157); details: S. cerevisiae mec2-1 strain, at 50.0 µM (retest, dose inferred, filed as 5.0)
The panel holds about 79,000 compounds, 15% with a hit somewhere; the sample as a whole holds those more often. Activity calls are given as the source filed them. Rule as the data show it: active = growth inhibition above about 70%; inactive = the rest.
Respond only with the outcome that fits, drawn from yes for active, no for inactive

Answered examples (4):
For this compound, state the assay outcome: C#CC(O)c1ccc(Cl)cc1Cl (configuration not stated)
yes

Check the results log: what was the call for S=C(Nc1ccc(Cl)c(Cl)c1)N1c2ccccc2-n2cccc2C1c1cccnc1 (configuration not stated) ?
yes

So what was the verdict on Cc1ccc(C)c(S(=O)(=O)Nc2c([N+](=O)[O-])cc([N+](=O)[O-])c3ccccc23)c1 in this test?
no

State the result this test recorded for CC(=O)OCC1OC(N2CCc3cc([N+](=O)[O-])ccc32)C(OC(C)=O)C(OC(C)=O)C1OC(C)=O (configuration not stated) .
no

Continuing:
Outcome logged for COC(=O)C(=C(c1ccccc1)c1ccccc1)c1ccccc1 in this assay:
no

Outcome? Nc1ccc(O)c2ccccc12
yes

* * *

test: NCI Yeast Anticancer Drug Screen. Data for the mlh1 rad18 strain (AID 175); settings: S. cerevisiae mlh1 rad18 strain growth inhibition; at 5.0 µM (retest, dose inferred, filed as 0.5); hits give high values
Compounds without any hit were thinned out: in the full panel of roughly 79,000, 15% have a hit.
Reported growth inhibition is given for each of the following compounds.
Use % as the unit, but write only the number.

Quick one: growth inhibition for COc1cccc2c1C1c3ccccc3Sc3cccc(c31)O2 (stereo not given) ?
4

Quick one: growth inhibition for NC(=S)NNC(=O)c1cccnc1 ?
-1

Which growth inhibition is reported for this compound? ICCCCCCCCCC[n+]1ccc2ccccc2c1
28

# growth inhibition lookup, item CC(C)(C)OC(=O)Nc1cccc(Cl)c1
4

Next:
Which growth inhibition is listed for OC(/C=C/c1ccccc1)(c1ccccc1)c1nc2ccccc2s1 (stereo not given) ?
20

GET /values?readout=growth inhibition&item= COc1ccccc1C1(c2ccccc2OC)OC(=O)c2ccccc21
-6

Name the reported growth inhibition value associated with the compound Cc1cc(C)nc(NS(=O)(=O)c2ccc(Nc3nc(-c4cccc([N+](=O)[O-])c4)cs3)cc2)n1
5

Endpoint output: growth inhibition of O=[N+]([O-])/C=C/c1c[nH]c2c1ccc1ccccc12 . Value?
55

Need growth inhibition, item COc1ccc2c(c1)CCC(N1CCCC(O)C1)C2 (stereo not given)
14

Any idea what growth inhibition was measured for Cc1cc(Cc2ccccc2)ccc1O ?
8

Given the compound CCCCCCCC(CC(=O)O)OC(=O)CC(CCCCCCC)OC1OC(C)C(O)C(O)C1OC1OC(C)C(O)C(O)C1O (stereo not given) , what is its reported growth inhibition?
-68

Data request, read-out growth inhibition, for CCCCCCCCCCCCCCCCC/C=N\NC(=O)CCCC(=O)N/N=C/CCCCCCCCCCCCCCCCC
2

Query: growth inhibition; subject: CCC[CH2][Sn]([CH2]CCC)([O]C(=O)c1cc(OC)c(OC)cc1OC)[O][Sn]([CH2]CCC)([CH2]CCC)[O]C(=O)c1cc(OC)c(OC)cc1OC
96

Any idea what growth inhibition was measured for C=CC(=O)N1C/C(=C\c2ccc([N+](=O)[O-])cc2)C(=O)/C(=C/c2ccc([N+](=O)[O-])cc2)C1 ?
58

Endpoint output: growth inhibition of CN(C)Cc1cc(C(C)(C)C)cc(C2CCCCC2)c1O . Value?
1

// lookup growth inhibition for Nc1ccc2ccccc2c1N=Nc1ccccc1
2

Query (compound): COC(=O)[C@@]12OC[C@]34[C@H]([C@@H](O)[C@@H]1O)[C@@]1(C)CC(=O)C(O)=C(C)[C@@H]1C[C@H]3OC(=O)[C@H](OC(=O)C(Cc1ccccc1)NC(=O)OC(C)(C)C)[C@@H]24 (stereo not given in full) ; field requested: growth inhibition
3

So what does the record say about growth inhibition for C1=Cc2ccccc2/C1=C/c1ccccc1 ?
0

Sample CC1=CC(=O)C(O)=C/C1=C\C=C\c1ccccc1 — what was its growth inhibition?
50

Query: growth inhibition; subject: CCC(C)OC(=O)c1cccc(C)c1 (stereo not given)
-3

// returns reported growth inhibition for input O=S1(=O)CC=C1c1ccccc1
2

Value lookup for growth inhibition; key = CC(C)(N)COB(c1ccccc1)c1ccccc1
-7

* * *

assay: NCI Yeast Anticancer Drug Screen. Data for the bub3 strain (AID 167); details: S. cerevisiae bub3 mutant strain, at 5.0 µM (retest, dose inferred, filed as 0.5), hits give high values
The panel holds about 79,000 compounds, 15% with a hit somewhere; the sample as a whole holds those more often.
Measured growth inhibition, listed per entry for reference.
Hi! Could you send only the number? It should be in %, unit omitted.

Here's what some known entries look like.
Returns the measured growth inhibition for the input compound. Input: CCN1CCNc2c3cc(OC)ccc3nc3c([N+](=O)[O-])ccc1c23
1

Recorded growth inhibition for ON1CCc2c([nH]c3ccccc23)C1c1ccc(Cl)cc1 (configuration not stated) , please?
-6

Consider the compound shown here: Cn1cnc2[nH]c(Cl)nc(=S)c21 What is its recorded growth inhibition?
-1

Fill in the blank: the reported growth inhibition of O=c1c(Cl)c(Cl)oc(Cl)c1Cl is ____.
43

# growth inhibition lookup, item O=C1c2ccccc2C(=O)[C@@]23O[C@@]12C1(Oc2cccc4cccc(c24)O1)[C@@H]1O[C@@H]1[C@@H]3O
56

Please report the recorded growth inhibition for C=CCNC(=S)N/N=C(/c1ccccn1)C(C)C .
-2

Others:
Given COc1ccc2c(c1)c(=O)c1c(NCCN(C)C)ccc3nnn2c31 , state its recorded growth inhibition.
-4

Can you share its growth inhibition? I mean this compound: O=C1C=CC(=O)N1c1ccc(-c2nc3ccccc3o2)cc1
100

Please look up its growth inhibition: O=C(O)c1ccc([N+](=O)[O-])o1
-3

// growth inhibition lookup, key: Clc1cc(Cl)c2cc3cccc[n+]3cc2c1Cl
-12

Using the record for CCCCc1c2c(nc3c1CCCC3O)/C(=C/c1ccccc1)CCC2 (configuration not stated) , report its growth inhibition.
3

I am curious: what growth inhibition value has been reported for CC(C)Sc1nc(NC(=O)N(CCCl)N=O)cc(=O)[nH]1 ?
-1

* * *

Experiment: NCI Yeast Anticancer Drug Screen. Data for the mec2-1 strain (AID 157)
Conditions: S. cerevisiae mec2-1 strain, at 5.0 µM (retest, dose inferred, filed as 0.5), hits give high values
Procedure: Growth inhibition of yeast strains with defined genetic alterations is measured as a screen for potential anti-cancer activity. Selected strains with alterations in DNA damage repair or cell cycle control were exposed to compounds and growth inhibition was measured relative to vehicle treated controls. The strain used in this assay is mec2-1
About 79,000 compounds went through this panel and 15% of them were active in at least one assay; those are over-represented in the sample as a whole.
observable: growth inhibition (%)
The answer is to be given in %; state only the numeric part.

// solved cases for growth inhibition follow
Find the recorded growth inhibition belonging to CC(=O)OC1COC(n2ccc3cc(Br)c([N+](=O)[O-])cc32)C(OC(C)=O)C1OC(C)=O (centres undefined) and report it.
-5

Could you tell me which growth inhibition is on file for C[n+]1c(/C=C\c2ccccc2)sc2ccccc21 ?
21

Given the compound CC(C)C1=CC23CCC4C(C)(C(=O)O)CCCC4(C)C2CC1C(C(=O)O)C3C(=O)O (centres undefined) , what is its reported growth inhibition?
89

May I ask what growth inhibition has been recorded for CCCCCCCCCCCCCCC(=O)OCC[N+](C)(C)C ?
24

I'd like to know its growth inhibition. The compound in question is C=CC(=O)N1C/C(=C\c2ccc([N+](=O)[O-])cc2)C(=O)/C(=C/c2ccc([N+](=O)[O-])cc2)C1
33

***
Would you mind telling me what growth inhibition value was observed for Cc1ccc(-n2c(CSc3ccc(Cl)cc3)nnc2SCc2nc3ccccc3[nH]2)cc1 ?
-16

Reported growth inhibition, compound CN(C)CC1CCC/C(=C\c2ccc(Cl)c(Cl)c2)C1=O (centres undefined) : ____
9
